conditions: buffer; pH 7.4; 200.0 µM
QUANTITY_MEASURED: solubility kinetic

Worked examples, 10 molecules total:
- MOLECULE: "O=C(Nc1ccc(F)cc1)C1CC(=O)N(Cc2ccco2)C1 (stereo not drawn)"
  solubility kinetic: "> 45.3 µg/mL"
- MOLECULE: "O=C(O)C1CCCN1C1=NS(=O)(=O)c2ccccc21 (stereo not drawn)"
  solubility kinetic: "> 42 µg/mL"
- MOLECULE: "COc1ccc(S(=O)(=O)N2CN3CCN(C3)C2)cc1"
  solubility kinetic: "> 42.5 µg/mL"
- MOLECULE: "O=C(Nc1ccc(Cl)cc1)c1ccc(-c2ccccn2)s1"
  solubility kinetic: "< 0.3 µg/mL"
- MOLECULE: "O=C(N/N=C/c1ccccc1C(F)(F)F)c1ccc(O)cc1"
  solubility kinetic: "> 46.2 µg/mL"
- MOLECULE: "O=C(O)c1cc(-c2ccc(Cl)cc2)n(-c2ccc(F)cc2)n1"
  solubility kinetic: "> 47.5 µg/mL"
- MOLECULE: "O=C(OCc1cncs1)c1cccs1"
  solubility kinetic: "> 33.8 µg/mL"
- MOLECULE: "CC1CCCN(C(=O)COC(=O)Cn2cnc3ccccc32)C1 (stereo not drawn)"
  solubility kinetic: "> 47.3 µg/mL"
- MOLECULE: "O=C(COC(=O)c1ccccc1OCc1ccccc1Cl)NCC1CCCO1 (stereo not drawn)"
  solubility kinetic: "> 60.6 µg/mL"
- MOLECULE: "Cc1snc(SCc2ccc(Cl)cc2)c1C#N"
  solubility kinetic: "< 0.3 µg/mL"

Looking for the measured solubility kinetic of O=C(Nc1ccc2nccnc2c1)c1ccco1 , can you help?
> 35.9 µg/mL

Looking for the measured solubility kinetic of Cc1cc(C)n2nc(SCC(=O)N3CCN(c4ccccc4)CC3)nc2n1 , can you help?
> 57.4 µg/mL

Looking for the measured solubility kinetic of CC1CCC(NC(=O)COC(=O)c2ccco2)CC1 (stereo not drawn) , can you help?
> 39.8 µg/mL

----------
settings: buffer; pH 7.4; 200.0 µM
Measured solubility kinetic by item
Express it in µg/mL; write the number only.

- COMPOUND: "Cc1ccc(C(C)NC(=O)c2cccs2)cc1C (stereo not drawn)"
  solubility kinetic [µg/mL]: 5.7

Kindly consider the entry below.
Looking for the measured solubility kinetic of COc1ccccc1OCCCCN1CCCCC1 , can you help?
36.1

----------
conditions: buffer; pH 7.4; 200.0 µM
Measured solubility kinetic by item

Worked examples, 3 molecules total:
- SMILES_INPUT: "CC(=O)c1sc2nc(CSc3nncn3C)[nH]c(=O)c2c1C"
  RESULT: "> 50.3 µg/mL"
- SMILES_INPUT: "COc1ccc(C(=O)CNC2=NCCC2)cc1.Cl"
  RESULT: "> 40.3 µg/mL"
- SMILES_INPUT: "O=C(/C=C/c1ccco1)Nc1nc(-c2ccc(F)c(F)c2)cs1"
  RESULT: "< 0.4 µg/mL"

Kindly consider the entry below.
Looking for the measured solubility kinetic of COc1ccc(C(=O)Nc2nc3ccccc3s2)cc1 , can you help?
< 0.3 µg/mL

----------
details: buffer; pH 7.4; 200.0 µM
Measured solubility kinetic by item

- COMPOUND: "Cc1ccc(C(=O)NCC(=O)N2CCCN(C)CC2)cc1C"
  solubility kinetic: "> 45.5 µg/mL"

Looking for the measured solubility kinetic of CCN1C(=O)C(=O)N(CC(=O)N(C)CC(=O)Nc2ccccc2C(F)(F)F)C1=O , can you help?
> 62.1 µg/mL

Looking for the measured solubility kinetic of COC(=O)c1cc(Nc2cc(C)c3c(O)cccc3n2)cc(C(=O)OC)c1 , can you help?
< 0.4 µg/mL

Looking for the measured solubility kinetic of Cc1ccc(N2C(=O)CN=C2Nc2nc(C)cc(C)n2)cc1 , can you help?
> 44.3 µg/mL

Looking for the measured solubility kinetic of Cc1ccc(S(=O)(=O)NCCNC(=O)c2ccc(C)nc2)cc1 , can you help?
> 50 µg/mL

Looking for the measured solubility kinetic of Cc1ccc(CNC(=O)Cc2ccc(Br)cc2)cc1 , can you help?
< 0.7 µg/mL

Looking for the measured solubility kinetic of C=CCn1c(N2CCCC2)nc2c1c(=O)n(C)c(=O)n2C , can you help?
> 43.4 µg/mL

Looking for the measured solubility kinetic of O=C(Nc1ccc(C(=O)O)cc1)/C(=C\c1ccco1)NC(=O)c1ccco1 , can you help?
> 54.9 µg/mL

Looking for the measured solubility kinetic of Nc1ccc(S(=O)(=O)NCc2ccccn2)cc1 , can you help?
> 39.5 µg/mL

Looking for the measured solubility kinetic of CC(C)(C)c1ccc(C(=O)NC2CCS(=O)(=O)C2)cc1 (centres undefined) , can you help?
> 44.3 µg/mL

Looking for the measured solubility kinetic of NC(=O)C1CCN(C(=O)CCc2ccsc2)CC1 , can you help?
> 40 µg/mL

Looking for the measured solubility kinetic of O=c1c2ccccc2nc2n1CCO2 , can you help?
> 28.2 µg/mL

Looking for the measured solubility kinetic of O=C(OCCN1C(=O)c2ccccc2C1=O)[C@@H]1CC(O)CN1S(=O)(=O)c1ccccc1[N+](=O)[O-] (some centres undefined) , can you help?
> 73.4 µg/mL

All figures here come from PubChem BioAssay AID1996.
